assayProtocol: Henry solubility constant Hcp at 310 K (mol/(m3 Pa))
assaySetup: reference: Sato and Nakajima (1979b)
quantityKind: Henry solubility constant Hcp at 310 K
Give bare numbers.

Guide cases for Henry solubility constant Hcp at 310 K, answers given:
>  <compound>
Clc1cccc(Cl)c1

>  <Henry solubility constant Hcp at 310 K>
0.0021

$$$$
>  <compound>
Clc1ccccc1

>  <Henry solubility constant Hcp at 310 K>
0.0016

$$$$
>  <compound>
ClC(Cl)(Cl)Cl

>  <Henry solubility constant Hcp at 310 K>
9.7e-05

$$$$
>  <compound>
CCCCCl

>  <Henry solubility constant Hcp at 310 K>
0.00033

$$$$

Report Henry solubility constant Hcp at 310 K for every entry below.
1. CC(Cl)CCl (configuration not stated)
2. ClCC(Cl)Cl
3. CC(Cl)(Cl)Cl

Response given:
[0.0021, 0.0066, 0.00036]

====

assayProtocol: Henry solubility constant Hcp at 310 K (mol/(m3 Pa))
assaySetup: reference: Sato and Nakajima (1979b)
Decide by Henry solubility constant Hcp at 310 K: equal to or exceeding 0.003 means true, less means false.

Answered examples (5):
>  <structureString>
ClC(Cl)C(Cl)Cl

>  <className>
true

$$$$
>  <structureString>
ClC(Cl)=C(Cl)Cl

>  <className>
false

$$$$
>  <structureString>
ClCCl

>  <className>
false

$$$$
>  <structureString>
CCCCCCl

>  <className>
false

$$$$
>  <structureString>
ClC=C(Cl)Cl

>  <className>
false

$$$$

Challenge: Entry `ClCC(Cl)(Cl)Cl` : is its Henry solubility constant Hcp at 310 K no less than 0.003?
Response given: false
